Test: Clearance in Sprague-Dawley rat at 10 mg/kg, po or […], iv
Type: ADME, organism-based
Conditions: in vivo
assayMetric: clearance (mL/min/kg)

1: Cc1cc(C)c(NC(=O)Nc2cc3ccccc3cc2C(=O)N[C@H](C(=O)O)[C@@H](C)OC(C)(C)C)c(C)c1
2: Cc1cc(C)c(NC(=O)Nc2cc3ccccc3cc2C(=O)N[C@@H](COC(C)(C)C)C(=O)O)c(C)c1
3: CCCC[C@H](NC(=O)c1cc2ccccc2cc1NC(=O)Nc1c(C)cc(C)cc1C)C(=O)O
Could you list the above compounds by clearance, going from the biggest number down? Show the ranking through the labels, in the order asked for.
2, 1, 3

###

Assay: Oral bioavailability in Sprague-Dawley rat at 10 mg/kg
Assay type: ADME, organism-based
Settings: in vivo
assayMetric: bioavailability (%)

P: Cc1cc(C)c(NC(=O)Nc2cc3ccccc3cc2C(=O)N[C@H](C(=O)O)[C@@H](C)OC(C)(C)C)c(C)c1
Q: CCCC[C@H](NC(=O)c1cc2ccccc2cc1NC(=O)Nc1c(C)cc(C)cc1C)C(=O)O
R: Cc1cc(C)c(NC(=O)Nc2cc3ccccc3cc2C(=O)N[C@@H](COC(C)(C)C)C(=O)O)c(C)c1
Order the records, beginning with the lowest bioavailability and ending with the highest. Show the ranking through the labels, in the order asked for.
Q, R, P
(Q: 8%, R: 17%, P: 40%)

###

Test: Half life in Sprague-Dawley rat at 10 mg/kg, po or […], iv
Type: ADME, organism-based
Conditions: in vivo
assayMetric: half-life (h)

Recorded half-life for `Cc1cc(C)c(NC(=O)Nc2cc3ccccc3cc2C(=O)N[C@H](C(=O)O)[C@@H](C)OC(C)(C)C)c(C)c1` , please?
3

A: Cc1cc(C)c(NC(=O)Nc2cc3ccccc3cc2C(=O)N[C@@H](COC(C)(C)C)C(=O)O)c(C)c1
B: CCCC[C@H](NC(=O)c1cc2ccccc2cc1NC(=O)Nc1c(C)cc(C)cc1C)C(=O)O
Please choose the item with the lower half-life value from this pair: A and B Record your answer as the label of the chosen record.
B
(B: 2.8 h, A: 4 h)

# credit: ChEMBL document CHEMBL1141021
